Assay: Partition coefficient (logD7.4)
Format: physicochemical
Conditions: octanol/water, pH 7.4

smiles.record | logD
CC(C)c1nc(-c2ccc(F)cc2)c(-c2ccc(F)cc2)n1/C=C/[C@@H](O)C[C@@H](O)CC(=O)O | 0.72
CC(C)c1nc(-c2cccc(S(C)(=O)=O)c2)c(-c2ccc(F)cc2)n1/C=C/[C@@H](O)C[C@@H](O)CC(=O)O | -0.6
Cc1cc(F)ccc1-c1c(-c2ccc(F)cc2)nc(C(C)C)n1/C=C/[C@@H](O)C[C@@H](O)CC(=O)O | 0.86
Cc1cc(-c2nc(C(C)C)n(/C=C/[C@@H](O)C[C@@H](O)CC(=O)O)c2-c2ccc(F)cc2)cc(C)c1Cl | 2.27
